log10 IC50 for assorted compounds
Target: UniProt:P36894
Sequence (P36894 24-532): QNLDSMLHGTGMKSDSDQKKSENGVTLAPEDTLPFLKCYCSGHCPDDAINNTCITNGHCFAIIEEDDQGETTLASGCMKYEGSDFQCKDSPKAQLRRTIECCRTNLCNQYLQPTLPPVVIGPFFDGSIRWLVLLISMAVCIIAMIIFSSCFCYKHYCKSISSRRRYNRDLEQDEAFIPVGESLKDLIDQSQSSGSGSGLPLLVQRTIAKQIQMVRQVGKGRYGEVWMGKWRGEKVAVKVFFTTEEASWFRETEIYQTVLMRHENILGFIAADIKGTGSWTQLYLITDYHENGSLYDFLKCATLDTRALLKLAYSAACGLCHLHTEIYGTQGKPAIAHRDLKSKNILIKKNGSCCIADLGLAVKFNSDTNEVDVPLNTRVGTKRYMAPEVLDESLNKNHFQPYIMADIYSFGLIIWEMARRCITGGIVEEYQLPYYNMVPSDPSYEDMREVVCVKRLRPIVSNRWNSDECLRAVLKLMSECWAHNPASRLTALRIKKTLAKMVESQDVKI
Experiment: TR-FRET enzymatic ALK kinase assay, ALK3
measureName: log10 IC50 (log10 of the value in µM)

compound: NC(c1cccc(-c2cnn3cc(-c4ccc(OC5(CN6CCC(O)C6)CC5)cc4)cnc23)c1)C(F)(F)F (stereo not drawn) [Compound 182]
log10 IC50: 0.69
//
compound: C[C@H](O)c1cccc(-c2cnn3cc(-c4ccc(OCCN5CCCCC5)cc4)cnc23)c1 [Compound 201]
log10 IC50: 0.00
//
compound: CC(O)c1cccc(-c2cnn3cc(-c4ccc(CCN5CCC(O)C5)cc4)cnc23)c1 (stereo not drawn) [Compound 148]
log10 IC50: 0.81
//
compound: CS(=O)(=O)c1cccc(-c2cnn3cc(-c4ccc(CCN5CCC(O)C5)cc4)cnc23)c1 (stereo not drawn) [Compound 132]
log10 IC50: 0.81
//
compound: C[C@H](O)c1cccc(-c2cnn3cc(-c4ccc(OCCN5CCCC5)cc4)cnc23)c1 [Compound 200]
log10 IC50: 0.08
//
compound: C[C@@H]1CNC[C@H](C)N1c1ccc(-c2cnc3c(-c4cccc(CS(N)(=O)=O)c4)cnn3c2)cc1 [Compound 73]
log10 IC50: 0.15
//
compound: CNC(=O)c1cccc2c(-c3cnn4cc(-c5ccc(N6CCNCC6)cc5)cnc34)cccc12 [Compound 7]
log10 IC50: -0.22
//
compound: CC(=O)c1ccc(-c2cnn3cc(-c4ccc(N5[C@H](C)CNC[C@@H]5C)cc4)cnc23)c2ccccc12 [Compound 27]
log10 IC50: -0.65
